test system: 616215-338-R-J1-PDC complex spheroid viability; test: Anticancer human tumor 616215-338-R-J1-PDC patient-derived colon adenocarcinoma cell line growth inhibition [POLQ]; settings: second compound 0.0316 µM; first compound 0.1 µM; stronger effect = lower value
Quick reference: viability, T/C of the listed items.
Unit % implied. Number only.

# example entries with known answers
[[record]]
molecule = "COc1cc(C2c3cc4c(cc3C(OC3OC5COC(C)OC5C(O)C3O)C3COC(=O)C23)OCO4)cc(OC)c1O (stereo not given) + Nc1ccc(C#CCN(C(=O)Cc2ncc(C(F)(F)F)cc2C(F)(F)F)c2ccc(F)cc2)nn1"
recorded_number = 83.9

[[record]]
molecule = "COc1cccc2c1C(=O)c1c(O)c3c(c(O)c1C2=O)CC(O)(C(=O)CO)CC3OC1CC(N)C(O)C(C)O1 (stereo not given) + Cc1cccc(N(C)C(=O)C2C(O)CCN2c2nc(C)cc(C(F)(F)F)c2C#N)c1"
recorded_number = 92.5

[[record]]
molecule = "Cn1ncnc1[C@H]1c2n[nH]c(=O)c3cc(F)cc(c23)N[C@@H]1c1ccc(F)cc1 + COC1C(OC(N)=O)C(O)C(Oc2ccc3c(O)c(NC(=O)c4ccc(O)c(CC=C(C)C)c4)c(=O)oc3c2C)OC1(C)C"
recorded_number = 102


get_value(item= CC1COCCN1c1cc(-c2ccnn2C)c2ccnc(-c3ccn[nH]3)c2n1 (stereo not given) + Cc1cccc(N(C)C(=O)C2C(O)CCN2c2nc(C)cc(C(F)(F)F)c2C#N)c1 , readout=viability, T/C) returns 110

get_value(item= CCc1c2c(nc3ccc(O)cc13)-c1cc3c(c(=O)n1C2)COC(=O)[C@]3(O)CC + Cc1cccc(N(C)C(=O)C2C(O)CCN2c2nc(C)cc(C(F)(F)F)c2C#N)c1 , readout=viability, T/C) returns 49.3

get_value(item= Nc1ccn(C2OC(CO)C(O)C2(F)F)c(=O)n1 (stereo not given) + Cc1cccc(N(C)C(=O)C2C(O)CCN2c2nc(C)cc(C(F)(F)F)c2C#N)c1 , readout=viability, T/C) returns 36.6

get_value(item= CC1COCCN1c1cc(-c2ccnn2C)c2ccnc(-c3ccn[nH]3)c2n1 (stereo not given) + COC1C(OC(N)=O)C(O)C(Oc2ccc3c(O)c(NC(=O)c4ccc(O)c(CC=C(C)C)c4)c(=O)oc3c2C)OC1(C)C , readout=viability, T/C) returns 90.4

---

tested on: 616215-338-R-J1-PDC complex spheroid viability; experiment: Anticancer human tumor 616215-338-R-J1-PDC cell line growth inhibition [POLQ]; conditions: second compound 0.0316 µM; first compound 0.316 µM; stronger effect = lower value;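 also: spheroids exposed to compounds for one week before readout; percent viability relative to DMSO vehicle wells taken as 100%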
Measured Parameter: viability, T/C (%)
Unit % implied. Number only.

# example entries with known answers
[[record]]
molecule = "CCCS(=O)(=O)Nc1ccc(F)c(C(=O)c2c[nH]c3ncc(-c4ccc(Cl)cc4)cc23)c1F + Nc1ccc(C#CCN(C(=O)Cc2ncc(C(F)(F)F)cc2C(F)(F)F)c2ccc(F)cc2)nn1"
system_tested = "616215-338-R-J1-PDC complex spheroid viability"
recorded_number = 105

[[record]]
molecule = "CC1COCCN1c1cc(C2(S(C)(=N)=O)CC2)nc(-c2ccnc3[nH]ccc23)n1 (stereo unspecified) + COC1C(OC(N)=O)C(O)C(Oc2ccc3c(O)c(NC(=O)c4ccc(O)c(CC=C(C)C)c4)c(=O)oc3c2C)OC1(C)C"
system_tested = "616215-338-R-J1-PDC complex spheroid viability"
recorded_number = 100

[[record]]
molecule = "CNCc1ccc(-c2[nH]c3cc(F)cc4c3c2CCNC4=O)cc1 + Cc1cccc(N(C)C(=O)C2C(O)CCN2c2nc(C)cc(C(F)(F)F)c2C#N)c1"
system_tested = "616215-338-R-J1-PDC complex spheroid viability"
recorded_number = 105


get_value(item= O=C(c1cc(Cc2n[nH]c(=O)c3ccccc23)ccc1F)N1CCN(C(=O)C2CC2)CC1 + Cc1cccc(N(C)C(=O)C2C(O)CCN2c2nc(C)cc(C(F)(F)F)c2C#N)c1 , readout=viability, T/C) returns 102

get_value(item= COc1cc2cc(C(=O)CCC(=O)O)sc2cc1OC + Nc1ccc(C#CCN(C(=O)Cc2ncc(C(F)(F)F)cc2C(F)(F)F)c2ccc(F)cc2)nn1 , readout=viability, T/C) returns 110

get_value(item= O=C(c1cc(Cc2n[nH]c(=O)c3ccccc23)ccc1F)N1CCN(C(=O)C2CC2)CC1 + Nc1ccc(C#CCN(C(=O)Cc2ncc(C(F)(F)F)cc2C(F)(F)F)c2ccc(F)cc2)nn1 , readout=viability, T/C) returns 113

get_value(item= O=C(c1cc(Cc2n[nH]c(=O)c3ccccc23)ccc1F)N1CCN(C(=O)C2CC2)CC1 + COC1C(OC(N)=O)C(O)C(Oc2ccc3c(O)c(NC(=O)c4ccc(O)c(CC=C(C)C)c4)c(=O)oc3c2C)OC1(C)C , readout=viability, T/C) returns 107

get_value(item= COc1cccc(OCCCN)c1-c1cc(Nc2cnc(C#N)cn2)n[nH]1 + Nc1ccc(C#CCN(C(=O)Cc2ncc(C(F)(F)F)cc2C(F)(F)F)c2ccc(F)cc2)nn1 , readout=viability, T/C) returns 36.9

get_value(item= C=CCn1c(=O)c2cnc(Nc3ccc(N4CCN(C)CC4)cc3)nc2n1-c1cccc(C(C)(C)O)n1 + Cc1cccc(N(C)C(=O)C2C(O)CCN2c2nc(C)cc(C(F)(F)F)c2C#N)c1 , readout=viability, T/C) returns 44.5

get_value(item= C#Cc1c(F)ccc2cc(O)cc(-c3ncc4c(N5CC6CCC(C5)N6)nc(OCC56CCCN5CC(F)C6)nc4c3F)c12 (stereo unspecified) + Cc1cccc(N(C)C(=O)C2C(O)CCN2c2nc(C)cc(C(F)(F)F)c2C#N)c1 , readout=viability, T/C) returns 94.2

get_value(item= C=CC(=O)N1CCN(c2nc(=O)n(-c3c(C)ccnc3C(C)C)c3nc(-c4c(O)cccc4F)c(F)cc23)C(C)C1 (stereo unspecified) + Cc1cccc(N(C)C(=O)C2C(O)CCN2c2nc(C)cc(C(F)(F)F)c2C#N)c1 , readout=viability, T/C) returns 95.8
